Tested on: A498 renal
Procedure text: NCI-60 one-dose screen, 48 h (100 = growth as untreated, 0 = no growth, -100 = all killed)
Setup conditions: 10 µM
This is part of a sample that, as a whole, favours compounds with a hit. Of some 83,000 tested, about 20% had one in any assay.
Each entry below lists one item and its recorded growth value.
Assay endpoint: growth (%)

[[record]]
compound = "Cc1noc2c(Cc3ccccc3)nn(CC(=O)N/N=C/c3ccc(Cl)cc3)c(=O)c12"
assay_endpoint = "growth"
observed = -58.1

[[record]]
compound = "Nc1cccnc1/C=N/NC(=S)NCCNC(=O)c1ccc(-n2nc(-c3ccccc3O)nc2-c2ccccc2O)cc1"
assay_endpoint = "growth"
observed = 73.7

[[record]]
compound = "CN(C)c1ccc(/C=C/c2nc3ccccc3c(=O)n2CC(=O)Nc2ccc(Cl)cc2)cc1"
assay_endpoint = "growth"
observed = 76.1

[[record]]
compound = "CCC(C)S(=O)(=O)c1oc(-c2ccc(C)cc2)nc1S(=O)(=O)c1ccccc1 (stereo not drawn)"
assay_endpoint = "growth"
observed = 109

[[record]]
compound = "O=C(NO)c1ccc(Cn2ccc3c(Nc4ccccc4)ncnc32)cc1"
assay_endpoint = "growth"
observed = -14.2

[[record]]
compound = "O=C(Nc1cccc([N+](=O)[O-])c1)Nc1cccc([N+](=O)[O-])c1"
assay_endpoint = "growth"
observed = 94.4

[[record]]
compound = "COc1ccc(/C=C/C(=O)c2ccc(NC(=O)CN3C(=O)NC(C)(c4ccccc4)C3=O)cc2)cc1 (stereo not drawn)"
assay_endpoint = "growth"
observed = 119

[[record]]
compound = "CCOC(=O)CNC(=O)CN(Cc1ccccc1)C(=O)[C@@]1(C)CCC[C@]2(C)[C@H]3CC4C(C(C)C)=C[C@]3(CC[C@H]21)[C@@H]1C(=O)CCC(=O)[C@H]41"
assay_endpoint = "growth"
observed = 120

[[record]]
compound = "Cc1ccc(S(=O)(=O)c2nc(-c3ccccc3)oc2S(=O)(=O)CC(=O)N2CCCC2)cc1"
assay_endpoint = "growth"
observed = 90.1

[[record]]
compound = "COc1ccc(-c2nc(-c3ccccc3)c(-c3ccccc3)n2-c2ccc(S(=O)(=O)Nc3ncccn3)cc2)cc1OC"
assay_endpoint = "growth"
observed = 55

[[record]]
compound = "Cc1cc2c(c(O)c1Br)-c1ncoc1C(=O)[C@]1(C)CC[C@H](C(C)C)[C@H]21"
assay_endpoint = "growth"
observed = 104

[[record]]
compound = "Cc1ccc(NC(=O)c2ccc(-n3c(=O)[nH]c4ccccc4c3=O)cc2)cc1"
assay_endpoint = "growth"
observed = 107

[[record]]
compound = "CN1CCc2c(sc3ncnc(N/N=C/c4ccc5ccccc5c4)c23)C1"
assay_endpoint = "growth"
observed = 106

[[record]]
compound = "CC(=O)Nc1ccc(-c2cn(-c3cccc(C(=O)Nc4ccc(F)c(C(F)(F)F)c4)c3)nn2)cn1"
assay_endpoint = "growth"
observed = 114

[[record]]
compound = "O=S(=O)(Nc1ncccn1)c1ccc(-n2c(-c3ccc(Br)cc3)nc(-c3ccccc3)c2-c2ccccc2)cc1"
assay_endpoint = "growth"
observed = -1.34

[[record]]
compound = "C=C1CCC2C3(C)COC(c4c(F)cccc4F)OC3CCC2(C)C1C/C=C1/C(=O)OCC1O (stereo not drawn)"
assay_endpoint = "growth"
observed = 141

[[record]]
compound = "Cc1ccc(C(=O)Nc2ccc(-n3c(C)nc4c(cnn4-c4ccccc4)c3=O)cc2)cc1"
assay_endpoint = "growth"
observed = 87.3

[[record]]
compound = "COc1cc2c3c(n(CCCN4CCOCC4)c(=O)c2cc1OC)-c1nc2c(cc1C3=O)OCO2"
assay_endpoint = "growth"
observed = 76.9

